biological target: T1, TGFβ receptor II (TβR2), R&D, coated on ELISA plate; experiment: ELISA-like binding assay, receptor coated on plate, FITC fluorescence of bound peptide
T1 construct: Bought protein (R&D), coated at 20 nM; also called TGFβRII; TβRII
T1 sequence (P37173 whole entry): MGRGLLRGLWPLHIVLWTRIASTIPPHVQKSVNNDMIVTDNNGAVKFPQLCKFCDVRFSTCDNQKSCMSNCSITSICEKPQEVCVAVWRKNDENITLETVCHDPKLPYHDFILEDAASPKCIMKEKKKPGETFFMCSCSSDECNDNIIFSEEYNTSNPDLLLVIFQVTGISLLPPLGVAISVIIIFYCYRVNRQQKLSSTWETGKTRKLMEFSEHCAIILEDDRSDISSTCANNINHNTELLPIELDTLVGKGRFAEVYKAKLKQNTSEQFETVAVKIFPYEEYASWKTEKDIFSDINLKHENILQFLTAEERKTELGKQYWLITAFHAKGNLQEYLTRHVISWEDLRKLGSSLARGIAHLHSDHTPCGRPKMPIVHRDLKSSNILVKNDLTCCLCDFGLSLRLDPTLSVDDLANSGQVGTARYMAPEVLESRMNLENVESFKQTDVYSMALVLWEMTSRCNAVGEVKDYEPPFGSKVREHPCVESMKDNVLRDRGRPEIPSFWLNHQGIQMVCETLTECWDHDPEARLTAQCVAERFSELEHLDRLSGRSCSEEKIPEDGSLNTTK
Primed or numbered codes have the meaning given here. Ends that are not written are not given here. FITC′ = not defined here
Measurement type: Kd (µM)

- ECGLLPVGRPDRVWRLCK-{FITC′} (cysteine pairing not given here) [peptide-based TGFβ receptor II inhibitor (PTβR2I), ECGLLPVGRPDRVWRLCK-FITC]: 3.4
